Measured inhibition at 10 µM by item
experimental.target: m-cGAS (Mus musculus)
Sequence (Q8C6L5 whole entry): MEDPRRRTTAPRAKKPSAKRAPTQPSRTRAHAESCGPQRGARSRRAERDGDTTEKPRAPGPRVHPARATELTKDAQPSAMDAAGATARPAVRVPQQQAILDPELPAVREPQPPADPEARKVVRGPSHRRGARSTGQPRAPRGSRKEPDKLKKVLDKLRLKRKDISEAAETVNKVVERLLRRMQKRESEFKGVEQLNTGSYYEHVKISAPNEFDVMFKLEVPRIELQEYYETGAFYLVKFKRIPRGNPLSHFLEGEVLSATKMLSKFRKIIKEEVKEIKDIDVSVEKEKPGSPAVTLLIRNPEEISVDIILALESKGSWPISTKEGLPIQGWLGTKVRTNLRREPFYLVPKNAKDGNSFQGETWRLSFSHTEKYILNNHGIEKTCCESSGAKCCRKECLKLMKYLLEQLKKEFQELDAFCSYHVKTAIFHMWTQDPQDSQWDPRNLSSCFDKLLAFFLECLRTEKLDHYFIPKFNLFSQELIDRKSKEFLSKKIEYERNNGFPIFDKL
test: Cell-free mouse cGAS enzyme inhibition assay (ATP depletion, Kinase-Glo Max)
Type: biochemical
reported.conditions: 1 h; read-out: m-cGAS, conc. 10 μM

{"molecule": "NCC(=O)N1CCc2c(sc3c(Cl)c(Cl)cc(-c4cncs4)c23)C1", "inhibition at 10 µM": "75 to 100%"}
{"molecule": "Cn1c2c(c3c(-c4ccn[nH]4)cc(Cl)c(Cl)c31)CN(C(=O)C1CCCN1)CC2 (stereo not shown)", "inhibition at 10 µM": "0 to 24%"}
{"molecule": "NCC(=O)N1CCc2c(sc3c(Cl)c(Cl)cc(-c4cncnc4)c23)C1", "inhibition at 10 µM": "50 to 74%"}
{"molecule": "Cn1c2c(c3c(O)cc(Cl)c(F)c31)CN(C(=O)CO)CC2", "inhibition at 10 µM": "75 to 100%"}
{"molecule": "Cn1ccc(-c2cc(Cl)c(Cl)c3sc4c(c23)CCN(C(=O)CO)C4)n1", "inhibition at 10 µM": "50 to 74%"}
{"molecule": "Cn1cc(-c2cc(Cl)c(Cl)c3sc4c(c23)CN(C(=O)CN)CC4)cn1", "inhibition at 10 µM": "50 to 74%"}
{"molecule": "CC(C)(N)C(=O)N1CCc2sc3c(Cl)c(Cl)cc(-c4cc[nH]n4)c3c2C1", "inhibition at 10 µM": "0 to 24%"}
